System: human red blood cells (hRBCs)
Test: Hemolysis assay
Conditions: 4% (v/v) erythrocytes in PBS, peptides 1–512 µg/mL, 1 h at 37 °C, hemoglobin at 540 nm, 100% = 1% Triton-X 100; ≥ means less than 5% hemolysis up to 512 µg/mL
Where a SMILES comes first, the peptide text is derived from it. The star is where a group is joined. Benzoyl(4-Ph) = O=C(c1ccc(-c2ccccc2)cc1)*; Octanoyl = CCCCCCCC(=O)*; X2 = O=C(C#Cc1ccccc1)*; Bz = O=C(c1ccccc1)*
# maps each entry to its MHC5 (minimum hemolytic concentration causing 5% hemolysis of hRBCs)
property-measured: MHC5 (minimum hemolytic concentration causing 5% hemolysis of hRBCs) (µg/mL)

[
  {
    "compound": "CC[C@H](C)[C@H](NC(=O)[C@H](CCCNC(=N)N)NC(=O)[C@H](CCC(N)=O)NC(=O)[C@@H](NC(=O)[C@@H](NC(=O)[C@H](CCCNC(=N)N)NC(=O)[C@H](CCCCN)NC(=O)c1ccc(-c2ccccc2)cc1)[C@@H](C)CC)C(C)C)C(=O)N[C@@H](CCCCN)C(=O)N[C@@H](CC(=O)O)C(=O)N[C@@H](Cc1ccccc1)C(=O)N[C@@H](CC(C)C)C(=O)N[C@@H](CCCNC(=N)N)C(N)=O [XXI, 4-Phenylbenzoic acid-KR12-NH2] ({Benzoyl(4-Ph)}-KRIVQRIKDFLR-NH2)",
    "assayed-system": "human red blood cells (hRBCs)",
    "unit-of-measure": "µg/mL",
    "censoring-sign": "=",
    "recorded-value": 32
  },
  {
    "compound": "CCCCCCCC(=O)NCCCC[C@H](N)C(=O)N[C@@H](CCCCN)C(=O)N[C@@H](CCCNC(=N)N)C(=O)N[C@H](C(=O)N[C@H](C(=O)N[C@@H](CCC(N)=O)C(=O)N[C@@H](CCCNC(=N)N)C(=O)N[C@H](C(=O)N[C@@H](CCCCN)C(=O)N[C@@H](CC(=O)O)C(=O)N[C@@H](Cc1ccccc1)C(=O)N[C@@H](CC(C)C)C(=O)N[C@@H](CCCNC(=N)N)C(N)=O)[C@@H](C)CC)C(C)C)[C@@H](C)CC [V, C8^ε-Lys-KR12-NH2] (H-K(Octanoyl)KRIVQRIKDFLR-NH2)",
    "assayed-system": "human red blood cells (hRBCs)",
    "unit-of-measure": "µg/mL",
    "censoring-sign": "=",
    "recorded-value": 256
  },
  {
    "compound": "CC[C@H](C)[C@H](NC(=O)[C@H](CCCNC(=N)N)NC(=O)[C@H](CCC(N)=O)NC(=O)[C@@H](NC(=O)[C@@H](NC(=O)[C@H](CCCNC(=N)N)NC(=O)[C@H](CCCCN)NC(=O)c1ccccc1)[C@@H](C)CC)C(C)C)C(=O)N[C@@H](CCCCN)C(=O)N[C@@H](CC(=O)O)C(=O)N[C@@H](Cc1ccccc1)C(=O)N[C@@H](CC(C)C)C(=O)N[C@@H](CCCNC(=N)N)C(N)=O [XV, Benzoic acid-KR12-NH2] (Bz-KRIVQRIKDFLR-NH2)",
    "assayed-system": "human red blood cells (hRBCs)",
    "unit-of-measure": "µg/mL",
    "censoring-sign": "≥",
    "recorded-value": 512
  },
  {
    "compound": "CC[C@H](C)[C@H](NC(=O)[C@H](CCCNC(=N)N)NC(=O)[C@H](CCC(N)=O)NC(=O)[C@@H](NC(=O)[C@@H](NC(=O)[C@H](CCCNC(=N)N)NC(=O)[C@H](CCCCN)NC(=O)C#Cc1ccccc1)[C@@H](C)CC)C(C)C)C(=O)N[C@@H](CCCCN)C(=O)N[C@@H](CC(=O)O)C(=O)N[C@@H](Cc1ccccc1)C(=O)N[C@@H](CC(C)C)C(=O)N[C@@H](CCCNC(=N)N)C(N)=O [XX, Phenylpropiolic acid-KR12-NH2] (X2-KRIVQRIKDFLR-NH2)",
    "assayed-system": "human red blood cells (hRBCs)",
    "unit-of-measure": "µg/mL",
    "censoring-sign": "=",
    "recorded-value": 256
  },
  {
    "compound": "CCCCCCCC(=O)N[C@@H](CCCCN)C(=O)N[C@@H](CCCNC(=N)N)C(=O)N[C@H](C(=O)N[C@H](C(=O)N[C@@H](CCC(N)=O)C(=O)N[C@@H](CCCNC(=N)N)C(=O)N[C@H](C(=O)N[C@@H](CCCCN)C(=O)N[C@@H](CC(=O)O)C(=O)N[C@@H](Cc1ccccc1)C(=O)N[C@@H](CC(C)C)C(=O)N[C@@H](CCCNC(=N)N)C(N)=O)[C@@H](C)CC)C(C)C)[C@@H](C)CC [II, C8^α-KR12-NH2] (Octanoyl-KRIVQRIKDFLR-NH2)",
    "assayed-system": "human red blood cells (hRBCs)",
    "unit-of-measure": "µg/mL",
    "censoring-sign": "=",
    "recorded-value": 64
  }
]
